# key: entry, value: exon inclusion enrichment index
B1: mRNA-splicing (parent)
chain: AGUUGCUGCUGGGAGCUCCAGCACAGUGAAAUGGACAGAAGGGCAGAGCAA

Variants of: B1
Test: exon inclusion enrichment index; higher = more inclusion; WT1 exon 5 minigene, HEK293
Give only the figure.

The cases that follow already have their exon inclusion enrichment index on record.
{"columns": ["VARIANT", "exon inclusion enrichment index"],
 "data": [
  ["G43C C44A", 0.932],
  ["G5C C6A U7C G8A U10A A29G A30U", 0.0104],
  ["G2U U3G G5A C6G U7G C9A", 0.0222]
]}

Hello, please tell me recorded exon inclusion enrichment index for this one: G5U G8U C9U A30C A31G
0.406

Hello, please tell me recorded exon inclusion enrichment index for this one: G5C C6G U7C U10C G11A G12U
1.83

Hello, please tell me recorded exon inclusion enrichment index for this one: G5A C6G U7G C9A G43A C44A
0.0069

Hello, please tell me recorded exon inclusion enrichment index for this one: G2U G5A U7C G8A U10C
3.56

Hello, please tell me recorded exon inclusion enrichment index for this one: G5A C6G U7G C9A G34U A35C
0.000948

Hello, please tell me recorded exon inclusion enrichment index for this one: G5A C6G U7G C9A A20C
0.00932
